assayReadout: logP

Known results for compounds:
Output measured logP for this item: NCCCCCCCC(=O)O
-2.55

Output measured logP for this item: O=C(O)CCN1CCCCC1
-2.45

Output measured logP for this item: NCCC(=O)O
-3.05

Output measured logP for this item: CCC(N)C(=O)O (stereo not drawn)
-2.54

Output measured logP for this item: CN(C)CC(=O)O
-2.91

1: O=C(O)C1CCCNC1 (stereo not drawn)
2: NC1(C(=O)O)CCCCC1
Decide: 1 or 2 , by lowest recorded logP. To answer, give the label that identifies your chosen option.
1

---

assayReadout: logP

Output measured logP for this item: NCCCCCCC(=O)O
-3.03

Output measured logP for this item: NC1(C(=O)O)CC1
-2.78

Output measured logP for this item: O=C(O)C1CCN1 (stereo unspecified)
-2.84

Output measured logP for this item: O=C(O)C1CCNCC1
-3.05

Output measured logP for this item: NC1(C(=O)O)CCCC1
-2.28

Output measured logP for this item: O=C(O)C1CCCCN1 (stereo unspecified)
-2.31
